experiment.description: MTT cytotoxicity assay
Assay type: cell-based, Spodoptera frugiperda
measurement.parameters: Spodoptera frugiperda, Sf9 cells; MTT assay; mean
property.label: log10 of CC50 (log10 of the value in µM)
The common logarithm of CC50 in µM is what is listed.

compound: C=C(C)[C@@H]1CC[C@]2(C(=O)NCCN)CC[C@]3(C)C(CCC4[C@@]5(C)CC[C@H](OC(=O)CC(C)(C)C(=O)O)C(C)(C)C5CC[C@]43C)C12 (some centres unmarked) [EP-39, ethylene diamine-conjugated DSB]
log10 of CC50: 2.08

log10 of CC50 reading for C=C(C)[C@@H]1CC[C@]2(C(=O)NCC(=O)O)CC[C@]3(C)C(CCC4[C@@]5(C)CC[C@H](OC(=O)CC(C)(C)C(=O)O)C(C)(C)C5CC[C@]43C)C12 (some centres unmarked) [ST-327, Glycine-conjugated DSB] : 1.49

Sure, the documented log10 of CC50 for C=C(C)[C@@H]1CC[C@]2(C(=O)NC(CCCCNC(=O)OC(C)(C)C)C(=O)O)CC[C@]3(C)C(CCC4[C@@]5(C)CC[C@H](OC(=O)CC(C)(C)C(=O)O)C(C)(C)C5CC[C@]43C)C12 (some centres unmarked) [EP-47] is 1.39

The compound C=C(C)[C@@H]1CC[C@]2(C(=O)NCCC(=O)O)CC[C@]3(C)C(CCC4[C@@]5(C)CC[C@H](OC(=O)CC(C)(C)C(=O)O)C(C)(C)C5CC[C@]43C)C12 (stereo partly drawn) [EP-48, beta-alanine-conjugated DSB] showed log10 of CC50 equal to 0.62

Lookup result for C=C(C)[C@@H]1CC[C@]2(C(=O)NC(CCCCN)C(=O)O)CC[C@]3(C)C(CCC4[C@@]5(C)CC[C@H](OC(=O)CC(C)(C)C(=O)O)C(C)(C)C5CC[C@]43C)C12 (some centres unmarked) [EP-62] ; measured log10 of CC50: 0.54

====

Tested on: HIV-1 VLP assembly
experiment.description: microbe, parasite or virus in culture
measurement.parameters: selectivity index
property.label: SI (ratio CC50:IC50)
Simply state the number, no unit and no words.

Below: 3 compounds and their reported SI (ratio CC50:IC50).
compound: C=C(C)[C@@H]1CC[C@]2(C(=O)NCC(=O)O)CC[C@]3(C)C(CCC4[C@@]5(C)CC[C@H](OC(=O)CC(C)(C)C(=O)O)C(C)(C)C5CC[C@]43C)C12 (stereo partly shown) [ST-327, Glycine-conjugated DSB]
recorded.value: 5.3

compound: C=C(C)[C@@H]1CC[C@]2(C(=O)O)CC[C@]3(C)[C@H](CC[C@@H]4[C@@]5(C)CC[C@H](O)C(C)(C)[C@@H]5CC[C@]43C)[C@@H]12 [BA, betulinic acid, reference compound]
recorded.value: 1.1

compound: C=C(C)[C@@H]1CC[C@]2(C(=O)NC(CCCCNC(=O)OC(C)(C)C)C(=O)O)CC[C@]3(C)C(CCC4[C@@]5(C)CC[C@H](OC(=O)CC(C)(C)C(=O)O)C(C)(C)C5CC[C@]43C)C12 (stereo partly shown) [EP-47]
recorded.value: 13.0

As a next step, examine the compound that follows.
Field SI (ratio CC50:IC50) (HIV-1 VLP assembly), entry C=C(C)[C@@H]1CC[C@]2(C(=O)NC(CCCCN)C(=O)O)CC[C@]3(C)C(CCC4[C@@]5(C)CC[C@H](OC(=O)CC(C)(C)C(=O)O)C(C)(C)C5CC[C@]43C)C12 (stereo partly shown) [EP-62] : 0.7

====

experiment.description: MTT cytotoxicity assay
Type: cell-based, Spodoptera frugiperda
measurement.parameters: Spodoptera frugiperda; MTT assay; mean
property.label: CC50 (µM)
Provide only the numeric value, understood in µM.

For this compound ( C=C(C)[C@@H]1CC[C@]2(C(=O)O)CC[C@]3(C)[C@H](CC[C@@H]4[C@@]5(C)CC[C@H](O)C(C)(C)[C@@H]5CC[C@]43C)[C@@H]12 [BA, betulinic acid, reference compound] ), measured CC50 is 43.8
